Test: Plasma pharmacokinetics, noncompartmental analysis
Type: in vivo, human
Settings: human, plasma, oral

smiles_str: COc1cc2c(Oc3ccc(NC(=O)C4(C(=O)Nc5ccc(F)cc5)CC4)cc3F)ccnc2cc1OCCCN1CCOCC1
Tmax: 3 to 3.5 h
